- Test system: Pseudomonas aeruginosa
- testProtocol: Antibacterial activity against Pseudomonas aeruginosa K799/61 by broth microdilution method
- Assay type: functional
Each entry below carries its reported MIC.
Expressed in µg/mL, but write only the number.

query: Return reported MIC; argument: `CO[C@@H]1[C@@H](OC(=O)c2ccc(C)[nH]2)[C@@H](O)[C@H](Oc2ccc3c(O)c(NC(=O)c4ccc(SC)cc4)c(=O)oc3c2Cl)OC1(C)C`
result: 2

query: Now consider `CO[C@@H]1[C@@H](OC(N)=O)[C@@H](O)[C@H](Oc2ccc3c(O)c(NC(=O)c4ccc(O)c(CC=C(C)C)c4)c(=O)oc3c2C)OC1(C)C` .
result: 1

query: Now consider `COc1cc(C(=O)Nc2c(O)c3ccc(O[C@@H]4OC(C)(C)[C@H](OC)[C@@H](OC(=O)c5ccc(C)[nH]5)[C@H]4O)c(Cl)c3oc2=O)ccc1O` .
result: 1
